target: CDK7/CycH/MNAT1 (Homo sapiens (Human), UniProt P50613); assay: Biochemical assay for CDK7 (TR-FRET kinase assay); conditions: 60 min pre-incubation; 1 mM ATP; read-out: IC50
Sequence (P50613 whole entry): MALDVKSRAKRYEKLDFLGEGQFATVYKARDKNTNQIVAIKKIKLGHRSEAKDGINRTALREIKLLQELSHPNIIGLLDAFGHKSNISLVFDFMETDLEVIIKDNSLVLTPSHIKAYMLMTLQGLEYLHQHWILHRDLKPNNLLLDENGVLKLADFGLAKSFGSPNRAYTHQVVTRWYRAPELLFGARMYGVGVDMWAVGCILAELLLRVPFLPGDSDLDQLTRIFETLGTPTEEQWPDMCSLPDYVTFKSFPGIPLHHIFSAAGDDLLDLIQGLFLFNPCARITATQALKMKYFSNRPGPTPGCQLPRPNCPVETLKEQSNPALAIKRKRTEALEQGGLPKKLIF
Sequence (P51946 whole entry partner): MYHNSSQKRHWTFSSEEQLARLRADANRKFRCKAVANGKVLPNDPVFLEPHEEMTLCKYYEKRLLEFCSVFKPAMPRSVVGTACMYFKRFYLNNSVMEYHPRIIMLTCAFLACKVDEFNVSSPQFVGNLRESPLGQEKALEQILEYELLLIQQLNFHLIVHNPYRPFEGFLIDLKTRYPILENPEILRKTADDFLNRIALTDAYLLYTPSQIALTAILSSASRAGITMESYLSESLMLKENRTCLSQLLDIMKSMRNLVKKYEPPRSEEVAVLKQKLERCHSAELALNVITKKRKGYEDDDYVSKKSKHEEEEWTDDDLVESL
Sequence (P51948 whole entry partner): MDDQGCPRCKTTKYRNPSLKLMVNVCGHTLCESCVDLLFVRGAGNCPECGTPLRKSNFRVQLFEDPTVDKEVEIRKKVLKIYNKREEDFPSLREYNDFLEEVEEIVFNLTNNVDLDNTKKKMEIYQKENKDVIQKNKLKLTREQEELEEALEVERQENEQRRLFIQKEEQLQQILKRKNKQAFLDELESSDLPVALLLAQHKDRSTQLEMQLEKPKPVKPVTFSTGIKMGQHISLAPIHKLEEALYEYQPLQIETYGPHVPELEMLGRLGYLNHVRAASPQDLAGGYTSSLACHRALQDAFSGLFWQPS
pIC50: −log10 of the molar value.
measurement_kind: pIC50

CC(C)c1cnn2c(NCc3cccc(NC(=O)C4CCCCN4C(=O)/C=C/CN4CCCC4)c3)nc(NC3CCOCC3)nc12 (stereo not shown) ... > 6.52
C/C=C/C(=O)N1CCC1C(=O)Nc1cccc(CNc2nc(NC3CCOCC3)nc3c(C(C)C)cnn23)c1 (stereo not shown) ... < 6.00
C=CC(=O)N1CCCCC1C(=O)Nc1cccc(CNc2nc(N[C@H]3CCCOC3)nc3c(C(C)C)cnn23)c1 (stereo partly shown) [Compound 16] ... > 6.52

Dear colleague, I am looking for the recorded pIC50 of the following molecule: C=CC(=O)N[C@H]1CC[C@@H](C(=O)Nc2cccc(CNc3nc(OC4CCOCC4F)nc4c(C(C)C)cnn34)c2)CC1 (single isomer, unassigned) [Compound 98]
6.00 to 6.52

Suppose we examine the molecule C=CC(=O)N1CCCC(C(=O)Nc2cccc(CNc3nc(NC4CCOCC4)nc4c(C(C)C)cnn34)c2)C1 (stereo not shown) ; what pIC50 value has been reported?
6.00 to 6.52

Using the record for "CC(C)c1cnn2c(NCc3ccccc3NC(=O)/C=C/CN(C)C)nc(NC3CCOCC3)nc12" , report its pIC50.
> 6.52

Name the recorded pIC50 for C=CC(=O)N1CCOCC1C(=O)Nc1ccc(CC)c(CNc2nc(NC3CCOCC3)nc3c(C(C)C)cnn23)c1 (stereo not shown) .
6.00 to 6.52

----------
target: CDK7/CycH/MNAT1 (Homo sapiens (Human)); test: Biochemical assay for CDK7 (TR-FRET kinase assay); details: 10 μM compound; 60 min pre-incubation; 1 mM ATP; read-out: % inhibition @ 10 μM
measurement_kind: inhibition at 10 µM (%)
Numeric answer only, unit % assumed.

Reference set (6 entries):
CC(C)c1cnn2c(NCc3ccccc3NC(=O)/C=C/CN(C)C)nc(NC3CCOCC3)nc12 [Compound 62] ... 97
CC(C)c1cnn2c(NCc3ccc(F)c(NC(=O)C4CCN(C(=O)/C=C/CN(C)C)C4)c3)nc(NC3CCOCC3)nc12 (stereo not shown) [Compound 64] ... 91
CC(C)c1cnn2c(NCc3cccc(NC(=O)/C=C/CN(C)C)c3F)nc(NC3CCOCC3)nc12 [Compound 60] ... 98
C=CC(=O)N1CCCC1C(=O)Nc1cccc(CNc2nc(NC3CCOCC3)nc3c(C(C)C)cnn23)c1 (stereo not shown) [Compound 3] ... 96
CC(C)c1cnn2c(NCc3cccc(NC(=O)/C=C/CN4CCC(F)C4)c3)nc(NC3CCOCC3)nc12 (stereo not shown) [Compound 56] ... 97
C=CC(=O)N1CCC(C(=O)Nc2cccc(CNc3nc(OC4CCOCC4)nc4c(C(C)C)cnn34)c2)C1 (stereo not shown) [Compound 95] ... 93

Quick one: inhibition at 10 µM of CC(C)=CC(=O)N1CCC1C(=O)Nc1cccc(CNc2nc(NC3CCOCC3)nc3c(C(C)C)cnn23)c1 (stereo not shown) [Compound 17] ?
84

----------
target: CDK7/CycH/MNAT1 (Homo sapiens (Human), UniProt P50613); assay: Biochemical assay for CDK7 (TR-FRET kinase assay); conditions: 60 min pre-incubation; 1 mM ATP; read-out: IC50
measurement_kind: IC50

C=CC(=O)N1CCC(C(=O)Nc2cccc(CNc3nc(NC4CCOCC4)nc4c(C(C)C)cnn34)c2)C1 (single isomer, unassigned) [Compound 5] ... < 300 nM
C=CC(=O)N[C@H]1CC[C@@H](C(=O)Nc2cccc(CNc3nc(OC4CCN(C)CC4)nc4c(CC)cnn34)c2)CC1 ... < 300 nM
C=CC(=O)N1CCC1C(=O)Nc1cc(F)cc(CNc2nc(NC3CCOCC3)nc3c(C(C)C)cnn23)c1 (stereo not shown) ... < 300 nM
C=CC(=O)N1CC[C@H]1C(=O)Nc1cccc(CNc2nc(NC3CCOCC3)nc3c(C(C)C)cnn23)c1 ... < 300 nM
C=CC(=O)N[C@H]1CC[C@@H](C(=O)Nc2cccc(CNc3nc(NC4CCOCC4)nc4c(C(C)C)cnn34)c2)CC1 ... > 1000 nM
C=CC(=O)N1CCCCC1C(=O)Nc1ccc(C)c(CNc2nc(NC3CCOCC3)nc3c(C(C)C)cnn23)c1 (stereo not shown) ... > 1000 nM

Continue with the compound presented below.
Please give the measured IC50 for this compound: CC(C)c1cnn2c(NC(C)c3cccc(NC(=O)C4CCCN(C(=O)/C=C/CN(C)C)C4)c3)nc(NC3CCOCC3)nc12 (stereo not shown)
300 to 1000 nM

----------
Reported inhibition at 10 µM is given for each of the following compounds.
molecular target: CDK7/CycH/MNAT1 (Homo sapiens (Human), UniProt P50613); test: Biochemical assay for CDK7 (TR-FRET kinase assay); details: 10 μM compound; 60 min pre-incubation; 1 mM ATP; read-out: % inhibition @ 10 μM
Answer shape: numeric part, then the unit.

C=CC(=O)N1CCC(C(=O)Nc2cccc(CNc3nc(OCCOCCOC)nc4c(C(C)C)cnn34)c2)C1 (stereo not shown) ... 78%
C=CC(=O)N[C@H]1CC[C@@H](C(=O)Nc2cccc(CNc3nc(OC4CCN(C)CC4)nc4c(C(C)C)cnn34)c2)CC1 ... 94%
C=CC(=O)N[C@H]1CC[C@@H](C(=O)Nc2cccc(CNc3nc(OC4CCN(C)CC4)nc4c(CC)cnn34)c2)CC1 ... 95%

Item C=C(C)C(=O)N1CCC1C(=O)Nc1cccc(CNc2nc(NC3CCOCC3)nc3c(C(C)C)cnn23)c1 (stereo not shown) has what recorded inhibition at 10 µM?
91%

Value lookup for inhibition at 10 µM; key = C=CC(=O)N1CCCC(NC(=O)c2cccc(Nc3nc(OC4CCN(C)CC4)nc4c(C(C)C)cnn34)c2)C1 (stereo not shown)
94%

Bench note: what inhibition at 10 µM did C=CC(=O)N1CCCC(C(=O)Nc2cccc(CNc3nc(OC4CCOCC4)nc4c(C(C)C)cnn34)c2)C1 (stereo not shown) show?
87%

Which inhibition at 10 µM is listed for C=CC(=O)N1CCCCC1C(=O)Nc1ccc(F)c(CNc2nc(NC3CCOCC3)nc3c(C(C)C)cnn23)c1 (stereo not shown) ?
91%

----------
inhibition at 10 µM reference
molecular target: CDK7/CycH/MNAT1 (Homo sapiens (Human), UniProt P50613); assay: Biochemical assay for CDK7 (TR-FRET kinase assay); details: 10 μM compound; 60 min pre-incubation; 1 mM ATP; read-out: % inhibition @ 10 μM
Write the value in % as a bare number.

CC(C)c1cnn2c(NCc3cccc(NC(=O)/C=C/CN4CCCC(F)C4)c3)nc(NC3CCOCC3)nc12 (stereo not drawn) [Compound 58] ... 96

Request the reported inhibition at 10 µM associated with C=CC(=O)Nc1ccccc1C(=O)Nc1cccc(CNc2nc(NC3CCOCC3)nc3c(C(C)C)cnn23)c1 [Compound 48]
98

Look at this compound and give its reported inhibition at 10 µM. CC(C)c1cnn2c(NCc3cc(F)cc(NC(=O)C4CCN(C(=O)/C=C/CN(C)C)C4)c3)nc(NC3CCOCC3)nc12 (stereo not drawn) [Compound 71]
92

----------
tested on: RNA polymerase II CTD phosphorylation (MDA-MB-231/NCI-H358 cells); assay: Inhibition of RNA polymerase II CTD phosphorylation in cell western assay; assay type: cell-based; conditions: 4 hours incubation, phospho RNA Pol II Ser-5 or Ser-2
EC50 values by entry

State the recorded EC50 for this entry: "C=CC(=O)N[C@H]1CC[C@H](C(=O)Nc2cccc(CNc3nc(OC4CCN(C)CC4)nc4c(C(C)C)cnn34)c2)CC1"
> 10 µM

Fill in: EC50 of C=CC(=O)N1CCCC(C(=O)Nc2cccc(CNc3nc(NC4CCOCC4)nc4c(C(C)C)cnn34)c2)C1 (stereo not drawn) is ___
≤ 1 µM

I have this compound here, C=CS(=O)(=O)N1CCCCC1C(=O)Nc1cccc(CNc2nc(NC3CCOCC3)nc3c(C(C)C)cnn23)c1 (stereo not drawn) , and I need its recorded EC50.
≤ 1 µM

// EC50 lookup, key: CC(C)c1cnn2c(NCc3cccc(NC(=O)C4CCN(C(=O)/C=C/CN(C)C)C4)c3)nc(NC3CCOCC3)nc12 (stereo not drawn)
1 to 10 µM

Fill in: EC50 of "C=CC(=O)N1CC[C@H]1C(=O)Nc1cccc(CNc2nc(NC3CCOCC3)nc3c(C(C)C)cnn23)c1" is ___
≤ 1 µM

Quick one: EC50 of CC(C)c1cnn2c(NCc3cccc(NC(=O)C4CCCN(C(=O)/C=C/CN(C)C)C4)c3)nc(OC3CCN(C)CC3)nc12 (stereo not drawn) ?
> 10 µM

// returns reported EC50 for input C=CC(=O)N1CCC(C(=O)Nc2cccc(CNc3nc(N[C@@H]4CCNC[C@H]4F)nc4c(C(C)C)cnn34)c2)C1 (stereo partly drawn)
1 to 10 µM

Which EC50 value belongs to "C=CC(=O)N[C@H]1CC[C@@H](C(=O)Nc2cccc(CNc3nc(OC4CCOCC4)nc4c(C(C)C)cnn34)c2)CC1" ?
1 to 10 µM

If you can, please state the reported EC50 value of C=CC(=O)N1CCC1C(=O)Nc1cccc(CNc2nc(NC3CCOCC3)nc3c(C(C)C)cnn23)c1 (stereo not drawn) .
≤ 1 µM
